Tested on: RXRa DBDmut IVT, anti-RXR (DBD mutation: RXRa K156A/R161A, NR concentration 90 nM)
Assay Details: PBM binding z-score (relative to random genomic background probes); higher = stronger binding; sequences stand for … in GC…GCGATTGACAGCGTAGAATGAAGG
Listing of recorded PBM binding z-score by entry.
Quantity Kind: PBM binding z-score

> print(dat)
                              residues                             tested.target        quantity.kind  measured
 1  TAGCCTAGGTCATGCGGGCCCGTATAGTGTCGGC  RXRa DBDmut IVT, anti-RXR (DBD mutation: RXRa K156A/R161A, NR concentration 90 nM)  PBM binding z-score     0.324
 2  CGTACTGGGCCATCAGGTCATTGATATCAACGTT  RXRa DBDmut IVT, anti-RXR (DBD mutation: RXRa K156A/R161A, NR concentration 90 nM)  PBM binding z-score     0.587
 3  TTTTGTAGATCAAAGGTTAAGAAAGCCGAAGCCT  RXRa DBDmut IVT, anti-RXR (DBD mutation: RXRa K156A/R161A, NR concentration 90 nM)  PBM binding z-score    -0.536
 4  TCATATAGGTAATACAGGTGAAAGTGGGCATCTA  RXRa DBDmut IVT, anti-RXR (DBD mutation: RXRa K156A/R161A, NR concentration 90 nM)  PBM binding z-score      2.06
 5  CGTACTGGGCCACGAAAGGTCATTGATTCAGTGA  RXRa DBDmut IVT, anti-RXR (DBD mutation: RXRa K156A/R161A, NR concentration 90 nM)  PBM binding z-score      0.97
 6  GCGACTGGGGCATCAGCAGCTTACCATAACTTAA  RXRa DBDmut IVT, anti-RXR (DBD mutation: RXRa K156A/R161A, NR concentration 90 nM)  PBM binding z-score     0.178
 7  AGAATGAAGTTAAGATCAGGGAAACAGAATACAT  RXRa DBDmut IVT, anti-RXR (DBD mutation: RXRa K156A/R161A, NR concentration 90 nM)  PBM binding z-score    -0.544
 8  TCTTGTAGATCAGCAGGTTAAGAGAGCTGGCCAA  RXRa DBDmut IVT, anti-RXR (DBD mutation: RXRa K156A/R161A, NR concentration 90 nM)  PBM binding z-score     0.292
 9  TGCCAAAGTTCAAAGGTAACGTAAGTATCCACAC  RXRa DBDmut IVT, anti-RXR (DBD mutation: RXRa K156A/R161A, NR concentration 90 nM)  PBM binding z-score      4.65
10  AGTCAAAGTTCAGGACGGGGTAACGTAAAGCACG  RXRa DBDmut IVT, anti-RXR (DBD mutation: RXRa K156A/R161A, NR concentration 90 nM)  PBM binding z-score      2.98
11  AGGATGAGGTTATTAAGATCAGGGAATTGCGGTC  RXRa DBDmut IVT, anti-RXR (DBD mutation: RXRa K156A/R161A, NR concentration 90 nM)  PBM binding z-score      1.78
12  CAAACTAGGTCAAAGGTTAAAGTCGAGCCAACCA  RXRa DBDmut IVT, anti-RXR (DBD mutation: RXRa K156A/R161A, NR concentration 90 nM)  PBM binding z-score      2.59
13  TAGCCTAGGTCATTCAGGGGCGAGTATAGAAAGC  RXRa DBDmut IVT, anti-RXR (DBD mutation: RXRa K156A/R161A, NR concentration 90 nM)  PBM binding z-score      2.29
14  TCCTGTAGATCAATAGAGGTTAAGAAAGTGCGCT  RXRa DBDmut IVT, anti-RXR (DBD mutation: RXRa K156A/R161A, NR concentration 90 nM)  PBM binding z-score      1.41
15  GCTAGCAGGCCATTTGGGTCACTTAATGACGGGC  RXRa DBDmut IVT, anti-RXR (DBD mutation: RXRa K156A/R161A, NR concentration 90 nM)  PBM binding z-score   -0.0616
16  CATACAGGGTCAGCTATGCCAGAGTAGGGACGGC  RXRa DBDmut IVT, anti-RXR (DBD mutation: RXRa K156A/R161A, NR concentration 90 nM)  PBM binding z-score      1.55
17  TCATATAGGTAATACAGTTGAAAGTCGGCATCTA  RXRa DBDmut IVT, anti-RXR (DBD mutation: RXRa K156A/R161A, NR concentration 90 nM)  PBM binding z-score      1.96
18  GCTAGTTGGTCAGTAAAAGATCACACACCGGTCG  RXRa DBDmut IVT, anti-RXR (DBD mutation: RXRa K156A/R161A, NR concentration 90 nM)  PBM binding z-score   -0.0346
19  CCTACTGGGCCACGAAAGGTCATTAATTCAGTGA  RXRa DBDmut IVT, anti-RXR (DBD mutation: RXRa K156A/R161A, NR concentration 90 nM)  PBM binding z-score     0.737
20  GCAACTGGGGCAAAGCAGGTTACCATAAGGTTGG  RXRa DBDmut IVT, anti-RXR (DBD mutation: RXRa K156A/R161A, NR concentration 90 nM)  PBM binding z-score   -0.0375
21  ATCTCTAGGTAAGACTCAGTTCAGTGCAGAACGC  RXRa DBDmut IVT, anti-RXR (DBD mutation: RXRa K156A/R161A, NR concentration 90 nM)  PBM binding z-score     0.644
22  CCGACTGGGGCAGAAAGGTAACCATACCATCCGG  RXRa DBDmut IVT, anti-RXR (DBD mutation: RXRa K156A/R161A, NR concentration 90 nM)  PBM binding z-score     -1.12
23  TTACCAAGGCGAAGGTCGTTGATCCCTCTGTAGA  RXRa DBDmut IVT, anti-RXR (DBD mutation: RXRa K156A/R161A, NR concentration 90 nM)  PBM binding z-score    0.0625
24  CCGGACAGGTGAGAAGGTAACTCAGCCTCGATTA  RXRa DBDmut IVT, anti-RXR (DBD mutation: RXRa K156A/R161A, NR concentration 90 nM)  PBM binding z-score   -0.0237
25  TCTTGTAGATCAGTAGGTTAAGAAAGCTGGCCAA  RXRa DBDmut IVT, anti-RXR (DBD mutation: RXRa K156A/R161A, NR concentration 90 nM)  PBM binding z-score     0.997
26  GCGACTGGGGCATCAGCAGGGTACCATAACTTAA  RXRa DBDmut IVT, anti-RXR (DBD mutation: RXRa K156A/R161A, NR concentration 90 nM)  PBM binding z-score    -0.313
27  CCTAATGGGCCATCAGGTCATTGATATCAACGTT  RXRa DBDmut IVT, anti-RXR (DBD mutation: RXRa K156A/R161A, NR concentration 90 nM)  PBM binding z-score     0.496
28  ACTAGTTGGTCAGCTGAGGTCACTCACAATTCGG  RXRa DBDmut IVT, anti-RXR (DBD mutation: RXRa K156A/R161A, NR concentration 90 nM)  PBM binding z-score      1.11
29  TCTAGTTGGTCAAAGGTAACACACTCGAAATGCG  RXRa DBDmut IVT, anti-RXR (DBD mutation: RXRa K156A/R161A, NR concentration 90 nM)  PBM binding z-score      1.33
30  CCTTACGGGTCACGAGGTGATAGCACGACGAGCG  RXRa DBDmut IVT, anti-RXR (DBD mutation: RXRa K156A/R161A, NR concentration 90 nM)  PBM binding z-score      1.66
31  CAAACTAGGTCAAGGTCAAAGCCGGTTTGTGCCA  RXRa DBDmut IVT, anti-RXR (DBD mutation: RXRa K156A/R161A, NR concentration 90 nM)  PBM binding z-score      2.67
32  CGTCCAAGGTCAGCAGGTCAGTGATAGCGACGTG  RXRa DBDmut IVT, anti-RXR (DBD mutation: RXRa K156A/R161A, NR concentration 90 nM)  PBM binding z-score      2.59
33  CCTACTGGGCCAAAGGTCATTAATTCCAATGCTC  RXRa DBDmut IVT, anti-RXR (DBD mutation: RXRa K156A/R161A, NR concentration 90 nM)  PBM binding z-score      1.34
34  CAAACTAGGTCACGGAGGTCAAAGTCCGTGCGTA  RXRa DBDmut IVT, anti-RXR (DBD mutation: RXRa K156A/R161A, NR concentration 90 nM)  PBM binding z-score      3.08
35  CGTCAAAGTTCAAGGAAACGTAACAGAAAGCAGC  RXRa DBDmut IVT, anti-RXR (DBD mutation: RXRa K156A/R161A, NR concentration 90 nM)  PBM binding z-score      4.06
36  TGAATGAGGATAAAGATCAGGGAACGTGGCGTCG  RXRa DBDmut IVT, anti-RXR (DBD mutation: RXRa K156A/R161A, NR concentration 90 nM)  PBM binding z-score    -0.871
37  AGAATGAGGTTATACGTAGATCAGAGAAGAAAGT  RXRa DBDmut IVT, anti-RXR (DBD mutation: RXRa K156A/R161A, NR concentration 90 nM)  PBM binding z-score      1.87
38  TCTAGTTGGTCACGGAGGTCACTCACGACGGGTA  RXRa DBDmut IVT, anti-RXR (DBD mutation: RXRa K156A/R161A, NR concentration 90 nM)  PBM binding z-score      1.24
39  TGTCGAAGTTCAAAGGTAACGTAAGTATCCACAC  RXRa DBDmut IVT, anti-RXR (DBD mutation: RXRa K156A/R161A, NR concentration 90 nM)  PBM binding z-score       3.6
40  GCGATTAGTTGAAAGGGCAACCGAATGATTCTCG  RXRa DBDmut IVT, anti-RXR (DBD mutation: RXRa K156A/R161A, NR concentration 90 nM)  PBM binding z-score     0.582
41  ACTACAGGGTCATCGTAGGCCAGAGTACGCACAG  RXRa DBDmut IVT, anti-RXR (DBD mutation: RXRa K156A/R161A, NR concentration 90 nM)  PBM binding z-score      3.26
42  TCATATAGGTAAAGGTGAAAGTAGAACGATATGA  RXRa DBDmut IVT, anti-RXR (DBD mutation: RXRa K156A/R161A, NR concentration 90 nM)  PBM binding z-score     0.637
43  CAGACTGGGGCAAAGGTTACCATACTCAGTACGA  RXRa DBDmut IVT, anti-RXR (DBD mutation: RXRa K156A/R161A, NR concentration 90 nM)  PBM binding z-score     0.804
44  TCATATAGGTAAAGGTCAAAGTCGAACGATATGA  RXRa DBDmut IVT, anti-RXR (DBD mutation: RXRa K156A/R161A, NR concentration 90 nM)  PBM binding z-score       1.9
45  ATCTCTAGGTAAAAGTTCAGTTAATCCCGAGGAT  RXRa DBDmut IVT, anti-RXR (DBD mutation: RXRa K156A/R161A, NR concentration 90 nM)  PBM binding z-score     0.885
46  CCAGACAAGTGAAAGGTAACTCAGTCTGGTACGC  RXRa DBDmut IVT, anti-RXR (DBD mutation: RXRa K156A/R161A, NR concentration 90 nM)  PBM binding z-score     0.272
47  TTACCAAGGTGAGCTGAGGTCGTAGATCCAACTC  RXRa DBDmut IVT, anti-RXR (DBD mutation: RXRa K156A/R161A, NR concentration 90 nM)  PBM binding z-score    -0.577
48  CCGACAGGGGCAAGGTTACCATAACGCACAGCCA  RXRa DBDmut IVT, anti-RXR (DBD mutation: RXRa K156A/R161A, NR concentration 90 nM)  PBM binding z-score    0.0606
49  CGTCCAATGTCAATGCTAGGTCAGTGAAAGCATT  RXRa DBDmut IVT, anti-RXR (DBD mutation: RXRa K156A/R161A, NR concentration 90 nM)  PBM binding z-score     0.448
50  GCTACTAGGTCAACTGATGGTCAGCTAAAGCTCG  RXRa DBDmut IVT, anti-RXR (DBD mutation: RXRa K156A/R161A, NR concentration 90 nM)  PBM binding z-score      1.63
51  ATCTCTAGGTAAGACTCAGTTCGGTGAAGAACGC  RXRa DBDmut IVT, anti-RXR (DBD mutation: RXRa K156A/R161A, NR concentration 90 nM)  PBM binding z-score     0.349
